Target: T1, S. cerevisiae Dhh1 residues 30-425 (DEAD-box core, RecA1 and RecA2) (S. cerevisiae, UniProt P39517 30-425)
T1 sequence: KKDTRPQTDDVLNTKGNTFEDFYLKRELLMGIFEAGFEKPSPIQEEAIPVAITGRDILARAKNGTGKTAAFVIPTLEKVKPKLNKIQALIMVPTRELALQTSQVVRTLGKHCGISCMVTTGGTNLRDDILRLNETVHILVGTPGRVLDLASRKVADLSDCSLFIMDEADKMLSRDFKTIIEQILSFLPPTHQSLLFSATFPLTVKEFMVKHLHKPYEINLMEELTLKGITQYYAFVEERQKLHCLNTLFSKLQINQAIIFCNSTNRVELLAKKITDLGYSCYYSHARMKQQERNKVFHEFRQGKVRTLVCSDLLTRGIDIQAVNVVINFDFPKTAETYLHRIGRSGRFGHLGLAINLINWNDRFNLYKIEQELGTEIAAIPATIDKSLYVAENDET
Assay: ITC
Measured Parameter: Kd (nM)
Numeric answer only, unit nM assumed.

Exercise: Quick one: Kd of S. cerevisiae Edc3 residues 77-158, as used for ITC (domain or fragment) QQNDYNQNRGEHIDWQDDDVSKIKQQEDFDFQRNLGMFNKKDVFAQLKQNDDILPENRLQGHNRKQTQLQQNNYQNDELVIP ?
Solution: 200

All values here come from paper PMC3783180.
